ASSAY_SUMMARY: Octanol-buffer partition coefficient, log D of the compound at pH 7.4 after 30 mins by shake flask method
Format: physicochemical
OBSERVED_PROPERTY: logD at 0.5 h

Field: example entries. Status: answers known.
## Task Which logD at 0.5 h value belongs to Cc1cnc(NC(=O)[C@H](CN2CC(O)C2)Oc2ncnc3c2cnn3-c2c(Cl)cccc2Cl)cn1 ?
## Result 2.3

## Task Again, but for N#Cc1ccc(NC(=O)[C@H](CN2CC(O)C2)Oc2ncnc3c2cnn3-c2c(Cl)cccc2C#N)nc1
## Result 1.9

## Task Again, but for C[C@@H](CO)OC[C@H](Oc1ncnc2c1cnn2-c1ncccc1Cl)C(=O)Nc1ccc(F)cn1
## Result 1.7

## Task Again, but for O=C(Nc1ccc(F)cn1)[C@H](CN1CC(O)C1)Oc1ncnc2c1cnn2-c1ccccc1Cl
## Result 2.3

## Task Again, but for C[C@H](CO)OC[C@H](Oc1ncnc2c1cnn2-c1ncccc1Cl)C(=O)Nc1ccc(Cl)cn1
## Result 2.3

## Task Again, but for N#Cc1ccc(NC(=O)[C@H](CN2CC(O)C2)Oc2ncnc3c2cnn3-c2c(Cl)cccc2Cl)nc1
## Result 2.6

(A) O=C(Nc1ccc(F)cn1)[C@H](COCCO)Oc1ncnc2c1cnn2-c1c(F)cccc1Cl
(B) C[C@@H](CO)OC[C@H](Oc1ncnc2c1cnn2-c1ncccc1Cl)C(=O)Nc1ccc(C#N)cn1
## Task Consider entries A and B . Which has the numerically lower logD at 0.5 h? I would appreciate it if you answered with the label of your choice.
## Result B

====

ASSAY_SUMMARY: Clearance in dog
Type: ADME, organism-based, Canis lupus familiaris
MEASUREMENT_CONDITIONS: in vivo
OBSERVED_PROPERTY: clearance (mL/min/kg)

## Task Which clearance value belongs to Cc1cnc(NC(=O)[C@H](CN2CC(O)C2)Oc2ncnc3c2cnn3-c2c(Cl)cccc2Cl)cn1 ?
## Result 18

(A) Cc1cnc(NC(=O)[C@H](CO[C@H](C)CO)Oc2ncnc3c2cnn3-c2c(Cl)cccc2C#N)cn1
(B) O=C(Nc1ccc(F)cn1)[C@H](CN1CC(O)C1)Oc1ncnc2c1cnn2-c1c(Cl)cccc1Cl
(C) O=C(Nc1ccc(F)cn1)[C@H](CN1CC(O)C1)Oc1ncnc2c1cnn2-c1ccccc1Cl
## Task Order the 3 molecules from highest to lowest clearance. Please list each label once, in the requested order.
## Result C, B, A

====

ASSAY_SUMMARY: Volume of distribution at steady state in dog
Format: ADME, organism-based, Canis lupus familiaris
MEASUREMENT_CONDITIONS: in vivo, read-out: Vdss
OBSERVED_PROPERTY: Vd (L/kg)

## Task Which Vd value belongs to Cc1cnc(NC(=O)[C@H](CO[C@H](C)CO)Oc2ncnc3c2cnn3-c2c(Cl)cccc2C#N)cn1 ?
## Result 0.9

## Task Again, but for Cc1cnc(NC(=O)[C@H](CN2CC(O)C2)Oc2ncnc3c2cnn3-c2c(Cl)cccc2Cl)cn1
## Result 1.1

## Task Again, but for O=C(Nc1ccc(F)cn1)[C@H](CN1CC(O)C1)Oc1ncnc2c1cnn2-c1ccccc1Cl
## Result 1.5

## Task Again, but for O=C(Nc1ccc(F)cn1)[C@H](CN1CC(O)C1)Oc1ncnc2c1cnn2-c1c(Cl)cccc1Cl
## Result 1.1

====

ASSAY_SUMMARY: Aqueous solubility in PBS buffer at pH 7.4 after 24 hrs by LC-UV analysis
Assay type: physicochemical
OBSERVED_PROPERTY: solubility at 24 h

Field: example entries. Status: answers known.
## Task Which solubility at 24 h value belongs to O=C(Nc1ccc(F)cn1)[C@H](CN1CC(O)C1)Oc1ncnc2c1cnn2-c1c(Cl)cccc1Cl ?
## Result 80 µM

## Task Again, but for Cc1cnc(NC(=O)[C@H](CN2CC(O)C2)Oc2ncnc3c2cnn3-c2c(Cl)cccc2Cl)cn1
## Result > 750 µM

## Task Again, but for O=C(Nc1ccc(F)cn1)[C@H](CN1CC(O)C1)Oc1ncnc2c1cnn2-c1ccccc1Cl
## Result > 750 µM

New cases:
## Task Which solubility at 24 h value belongs to Cc1cnc(NC(=O)[C@H](CO[C@H](C)CO)Oc2ncnc3c2cnn3-c2c(Cl)cccc2C#N)cn1 ?
## Result > 50 µM

====

Organism: Rattus norvegicus
ASSAY_SUMMARY: Unbound clearance in rat
Assay type: ADME, organism-based
MEASUREMENT_CONDITIONS: in vivo
OBSERVED_PROPERTY: CL free (mL/min/kg)

## Task Which CL free value belongs to O=C(Nc1ccc(F)cn1)[C@H](COCCO)Oc1ncnc2c1cnn2-c1c(F)cccc1Cl ?
## Result 110

(a) O=C(Nc1ccc(F)cn1)[C@H](COCCO)Oc1ncnc2c1cnn2-c1ccccc1Cl
(b) O=C(Nc1ccc(Cl)cn1)[C@H](COCCO)Oc1ncnc2c1cnn2-c1ccccc1Cl
(c) Cc1ccc(NC(=O)[C@H](COC2CCC2)Oc2ncnc3c2cnn3-c2ncccc2Cl)nc1
(d) O=C(Nc1ccc(Cl)cn1)[C@H](COCCO)Oc1ncnc2c1cnn2-c1ncccc1Cl
## Task Order the 4 compounds from highest to lowest CL free. Please list each label once, in the requested order.
## Result c, a, b, d
(c: 1500 mL/min/kg, a: 220 mL/min/kg, b: 120 mL/min/kg, d: 70 mL/min/kg)

====

ASSAY_TARGET: Hexokinase-4 (Homo sapiens, UniProt P35557)
Sequence (P35557 whole entry): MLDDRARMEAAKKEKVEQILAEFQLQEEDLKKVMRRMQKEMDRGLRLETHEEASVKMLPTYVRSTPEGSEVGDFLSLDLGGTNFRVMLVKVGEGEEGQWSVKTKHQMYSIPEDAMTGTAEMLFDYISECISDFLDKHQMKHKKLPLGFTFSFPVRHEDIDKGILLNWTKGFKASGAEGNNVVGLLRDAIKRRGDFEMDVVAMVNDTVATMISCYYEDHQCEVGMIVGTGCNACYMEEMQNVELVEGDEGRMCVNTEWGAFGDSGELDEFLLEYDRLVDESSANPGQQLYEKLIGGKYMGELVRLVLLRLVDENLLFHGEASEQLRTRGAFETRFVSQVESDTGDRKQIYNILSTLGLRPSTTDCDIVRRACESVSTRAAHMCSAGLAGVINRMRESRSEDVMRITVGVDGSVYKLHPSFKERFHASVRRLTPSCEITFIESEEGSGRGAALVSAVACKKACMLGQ
ASSAY_SUMMARY: Activation of glucokinase (unknown origin)
MEASUREMENT_CONDITIONS: read-out: EC50
OBSERVED_PROPERTY: EC50 (nM)

## Task Which EC50 value belongs to Cc1cnc(NC(=O)[C@H](CN2CC(O)C2)Oc2ncnc3c2cnn3-c2c(Cl)cccc2Cl)cn1 ?
## Result 96

## Task Again, but for O=C(Nc1ccc(F)cn1)[C@H](CN1CC(O)C1)Oc1ncnc2c1cnn2-c1ccccc1Cl
## Result 78

(A) Cc1cnc(NC(=O)[C@H](CO[C@H](C)CO)Oc2ncnc3c2cnn3-c2c(Cl)cccc2C#N)cn1
(B) O=C(Nc1ccc(F)cn1)[C@H](CN1CC(O)C1)Oc1ncnc2c1cnn2-c1c(Cl)cccc1Cl
## Task Consider entries A and B . Which has the numerically lower EC50? I would appreciate it if you answered with the label of your choice.
## Result B
(B: 49 nM, A: 78 nM)

====

ASSAY_TARGET: Hexokinase-4 (Homo sapiens)
ASSAY_SUMMARY: Activation of glucokinase (unknown origin)
MEASUREMENT_CONDITIONS: read-out: pEC50 (converted)
OBSERVED_PROPERTY: EC50 (nM)

(a) O=C(Nc1ccc(Cl)cn1)[C@H](CN1CC(O)C1)Oc1ncnc2c1cnn2-c1ncccc1Cl
(b) O=C(Nc1ccc(F)cn1)[C@H](COCCO)Oc1ncnc2c1cnn2-c1ccccc1Cl
## Task Sorting by EC50 in descending order, would a or b appear first? I would appreciate it if you answered with the label of your choice.
## Result b

====

ASSAY_SUMMARY: Oral bioavailability in dog
Assay type: ADME, organism-based, Canis lupus familiaris
MEASUREMENT_CONDITIONS: in vivo
OBSERVED_PROPERTY: bioavailability (%)

## Task Which bioavailability value belongs to Cc1cnc(NC(=O)[C@H](CO[C@H](C)CO)Oc2ncnc3c2cnn3-c2c(Cl)cccc2C#N)cn1 ?
## Result 43

(A) Cc1cnc(NC(=O)[C@H](CN2CC(O)C2)Oc2ncnc3c2cnn3-c2c(Cl)cccc2Cl)cn1
(B) O=C(Nc1ccc(F)cn1)[C@H](CN1CC(O)C1)Oc1ncnc2c1cnn2-c1c(Cl)cccc1Cl
(C) O=C(Nc1ccc(F)cn1)[C@H](CN1CC(O)C1)Oc1ncnc2c1cnn2-c1ccccc1Cl
## Task Order the 3 molecules from highest to lowest bioavailability. Please list each label once, in the requested order.
## Result A, B, C
(A: 87%, B: 32%, C: 12%)

====

ASSAY_SUMMARY: Apparent permeability from apical to basolateral side in MDCK cells
Format: ADME, cell-based, Canis lupus familiaris
MEASUREMENT_CONDITIONS: dog
OBSERVED_PROPERTY: Papp A→B (×10⁻⁶ cm/s)

(I) Cc1cnc(NC(=O)[C@H](CN2CC(O)C2)Oc2ncnc3c2cnn3-c2c(Cl)cccc2Cl)cn1
(II) Cc1cnc(NC(=O)[C@H](CO[C@H](C)CO)Oc2ncnc3c2cnn3-c2c(Cl)cccc2C#N)cn1
## Task Consider entries I and II . Which has the numerically lower Papp A→B? I would appreciate it if you answered with the label of your choice.
## Result I

====

ASSAY_SUMMARY: Volume of distribution at steady state in rat
Assay type: ADME, organism-based
MEASUREMENT_CONDITIONS: in vivo, read-out: Vdss
OBSERVED_PROPERTY: Vd (L/kg)

## Task Which Vd value belongs to O=C(Nc1ccc(F)cn1)[C@H](CN1CC(O)C1)Oc1ncnc2c1cnn2-c1c(Cl)cccc1Cl ?
## Result 1.7

## Task Again, but for O=C(Nc1ccc(F)cn1)[C@H](CN1CC(O)C1)Oc1ncnc2c1cnn2-c1ccccc1Cl
## Result 1.5

## Task Again, but for Cc1cnc(NC(=O)[C@H](CO[C@H](C)CO)Oc2ncnc3c2cnn3-c2c(Cl)cccc2C#N)cn1
## Result 1.5

## Task Again, but for Cc1cnc(NC(=O)[C@H](CN2CC(O)C2)Oc2ncnc3c2cnn3-c2c(Cl)cccc2Cl)cn1
## Result 1.2
